assay: gradient 5% acetonitrile 3 min, to 50% in 2 min, to 85% in 15 min, held 3 min, 100 µL/min; settings: column: Zorbax Extend-C18 2.1 x 50 mm; eluents: water / acetonitrile, 0.1% formic acid
ASSAY READOUT: RP-LC retention time (s)

COc1ccc(Nc2c(-c3nc(C)no3)cnc3nc(C)ccc23)cc1Cl; 736
Cc1ccc(NC(=O)Cn2nc(N(C)C)c3ccccc3c2=O)c(F)c1; 805
CCN1C(=O)C(C)(C(=O)Nc2ccc(C)cc2C)Oc2cccnc21 (stereo not given); 744
Cc1[nH]c(C(=O)N2CCC(CC(=O)NCCC3=CCCCC3)CC2)c(C)c1C; 910
CCn1c(C)c(C(=O)C(C)N(Cc2ccc(F)cc2)C(=O)C2CC2)c(C)c1C(=O)OC (stereo not given); 1030

* * *

experiment: gradient 5% acetonitrile 3 min, to 50% in 2 min, to 85% in 15 min, held 3 min, 100 µL/min; conditions: column: Zorbax Extend-C18 2.1 x 50 mm; eluents: water / acetonitrile, 0.1% formic acid
ASSAY READOUT: RP-LC retention time (s)

CC(CNC(=O)C1CCN(C(=O)C2Sc3ccccc3NC2=O)CC1)c1ccccc1 (stereo not given); 776
Cc1ccc(-c2noc(-c3cccc(S(=O)(=O)N4CCCC4)c3)n2)cc1; 1280
CN1CCCc2cc(CCNC(=O)C(=O)NCCC3=CCCCC3)ccc21; 842
Cc1ccccc1C(=O)Nc1nc(-c2ccc3c(c2)NC(=O)CO3)c(C)s1; 898
Cc1sc(-c2cc(C(F)(F)F)on2)cc1S(=O)(=O)Nc1ccccc1Cl; 1180

(a) Fc1ccc(F)c(-c2nc(-c3ccc(-n4cccn4)nc3)no2)c1
(b) COc1ccc(C2Cn3cnc(C(=O)N4CCC(C(=O)NC5CCCCC5)CC4)c3CO2)cc1 (stereo not given)
Req: Of a and b , which one carries the higher reported RP-LC retention time? Please indicate the selected item by its label.
Resp: a

* * *

assay: gradient 5% acetonitrile 3 min, to 50% in 2 min, to 85% in 15 min, held 3 min, 100 µL/min; details: column: Zorbax Extend-C18 2.1 x 50 mm; eluents: water / acetonitrile, 0.1% formic acid
ASSAY READOUT: RP-LC retention time (s)

Worked examples follow.
CC(C)c1cccc(C(C)C)c1N1C(=O)c2ccc(O)cc2C1=O; 1130
Cc1ccc2[nH]c(=O)c(CCC(=O)NCCCN3CCCC(C)C3)cc2c1 (stereo not given); 594
COc1ccc(NC(=O)C2CCN(S(=O)(=O)c3cc(C(=O)N4CCCC4)cs3)CC2)cc1; 760
Cc1nn(-c2ccc(N3CCOCC3)nn2)c(C)c1CCC(=O)Nc1ccc(F)cc1F; 719
Cc1nc(Cn2cccc2C(=O)NCc2cccc(Br)c2)no1; 852

(1) O=C(NC1CCCC1)c1c2c(nc3ccccc13)CCC2
(2) CC(NC(=O)c1cn(-c2ncccc2-c2nc(-c3ccccc3)no2)cn1)c1ccccc1 (stereo not given)
Req: Of 1 and 2 , whose reported RP-LC retention time is the larger number? Give the label of your selection.
Resp: 2

(A) Cc1cc(C(=O)N2CCOCC2)c2cccc(Cl)c2n1
(B) CCC(C)NC(=O)NC1CCN(c2nc3cccnc3n(Cc3ccc(C)cc3)c2=O)CC1 (stereo not given)
Req: # min-compare on RP-LC retention time between A and B Respond using the label that marks the chosen record.
Resp: A

(1) Cc1ccc(CNC(=O)c2cccc3c2CCN3C(=O)c2ccc(F)cc2)o1
(2) NC(=O)CSc1nnnn1-c1ccccc1
Req: Task for the reader: decide whether 1 or 2 has the larger RP-LC retention time. Response format: the label of the selected entry.
Resp: 1
(1: 889 s, 2: 590 s)

* * *

assay: gradient 5% acetonitrile 3 min, to 50% in 2 min, to 85% in 15 min, held 3 min, 100 µL/min; conditions: column: Zorbax Extend-C18 2.1 x 50 mm; eluents: water / acetonitrile, 0.1% formic acid
ASSAY READOUT: RP-LC retention time (s)

Solved cases below.
COc1cccc(CNC(=O)N2CCCC2c2cc(C)no2)c1 (stereo not drawn); 706
CCCS(=O)(=O)c1nc2ccc(NS(=O)(=O)c3cc(OC)ccc3OC)cc2s1; 909
Cn1cccc1C(=O)N1CCN(c2cc(-c3ccc(Cl)cc3)[nH]n2)CC1; 832
Cc1cccc(NC(=O)CSc2nccc(N3CCN(c4cc(C)ccc4C)CC3)n2)c1; 917

(a) Cc1cc(C2CCCN2C(=O)Cc2ccc(F)cc2Cl)on1 (stereo not drawn)
(b) O=C(Cn1ncccc1=O)Nc1cccc(-c2cn3c(n2)SCC3)c1
Req: Determine, for a and b , which has the greater value of RP-LC retention time. Reply briefly: the label of your chosen item.
Resp: a

* * *

assay: gradient 5% acetonitrile 3 min, to 50% in 2 min, to 85% in 15 min, held 3 min, 100 µL/min; conditions: column: Zorbax Extend-C18 2.1 x 50 mm; eluents: water / acetonitrile, 0.1% formic acid
ASSAY READOUT: RP-LC retention time (s)

Worked examples, 4 compounds total:
O=C(c1ccc(F)c(F)c1)N1CCN(CCn2cccn2)CC1; 543
COc1cc(CNC(=O)CCCC/C=C\C(C)C)ccc1O; 947
COC(=O)c1cc(S(=O)(=O)N2CCCC2C(=O)Nc2ccc(C)cc2)cn1C (centres undefined); 869
Cc1nn(-c2ccccc2)c2c1N(CC(=O)NCCC(C)C)C(=O)CS2; 821

(1) Cc1ccc2nsnc2c1NC(=O)Cn1c(-c2cncs2)nc2ccccc21
(2) CCCCn1c(=O)c2ccccc2n(Cc2nc(-c3ccc(CC)cc3)no2)c1=O
Req: Task for the reader: decide whether 1 or 2 has the larger RP-LC retention time. API: response body contains the label of the selected item.
Resp: 2
(2: 1310 s, 1: 682 s)

* * *

test: gradient 5% acetonitrile 3 min, to 50% in 2 min, to 85% in 15 min, held 3 min, 100 µL/min; conditions: column: Zorbax Extend-C18 2.1 x 50 mm; eluents: water / acetonitrile, 0.1% formic acid
ASSAY READOUT: RP-LC retention time (s)

COC(=O)c1c(C)sc(-c2c(-c3ccc(Br)cc3)[nH]c3[nH]c(=O)[nH]c(=O)c23)c1O; 791
CC1CCCCN1CCNC(=O)c1c2c(cn(-c3ccc(Cl)cc3)c1=O)C(=O)CC(C)(C)C2 (centres undefined); 710
CCN1CCCCc2cc(C(=O)N(C)CC(=O)NC)sc21; 738
CS(=O)(=O)N(CC(=O)NCc1ccc2c(c1)OCCCO2)Cc1ccc(Cl)cc1; 889
CCOc1cc(-c2ccccc2)nc2ccc(NS(=O)(=O)c3ccc(OC)c(OC)c3)cc12; 730
COc1ccc(-c2nnc(-c3ccc(Cl)c(S(=O)(=O)N(C)C)c3)o2)cc1OC; 904
O=C(/C=C/c1cccc(S(=O)(=O)Nc2ccccc2)c1)NO; 679
CCC(C)CN(CC(=O)N1CCc2sccc2C1COc1ccccc1F)C(=O)COC (centres undefined); 958
O=C(CCc1c(-c2ccc(Br)cc2)nc2ccccn12)NCCc1ccco1; 678

* * *

assay: gradient 5% acetonitrile 3 min, to 50% in 2 min, to 85% in 15 min, held 3 min, 100 µL/min; conditions: column: Zorbax Extend-C18 2.1 x 50 mm; eluents: water / acetonitrile, 0.1% formic acid
ASSAY READOUT: RP-LC retention time (s)

COc1cccc(Cn2cccc2-c2nc(-c3ccncc3)no2)c1; 1060
CCOc1ccc(CNC(=O)C2CCN(Cc3cn(C)c4ccc(Cl)cc34)CC2)cc1OC; 717
Cc1cc(C(=O)N2CCCCCC2c2nnc(C)o2)c(C)o1 (centres undefined); 755

(P) COc1ccc(OC)c(CNC(=O)CCC2CCN(S(=O)(=O)c3ccccc3)CC2)c1
(Q) O=C([C@@H]1C[C@H](Oc2cccnc2)CN1C(=O)c1ccoc1)N1CCCC1
Req: Given the two records P and Q , choose the one whose RP-LC retention time value is lower. Returns: label corresponding to the selected item.
Resp: Q

* * *

experiment: gradient 5% acetonitrile 3 min, to 50% in 2 min, to 85% in 15 min, held 3 min, 100 µL/min; conditions: column: Zorbax Extend-C18 2.1 x 50 mm; eluents: water / acetonitrile, 0.1% formic acid
ASSAY READOUT: RP-LC retention time (s)

COc1ccc(C)cc1NC(=O)C1CCN(S(=O)(=O)c2cc(C(=O)N3CCCC3)n(C)c2)CC1; 809
CCOC(=O)Cc1ccc(NC(=O)N2CCCC2c2cc(C)on2)cc1 (stereo not given); 807
CC(C)c1ccc(N2C(=O)C3N=NN(Cc4nc(-c5ccccc5Br)no4)C3C2=O)cc1 (stereo not given); 1140
O=c1ccc(-c2ccccc2F)nn1Cc1nc(-c2ccccc2Cl)no1; 1020
COc1cccc(CNC(=O)N2CCc3nc(-c4ccccc4)sc3C2)c1; 891

* * *

test: gradient 5% acetonitrile 3 min, to 50% in 2 min, to 85% in 15 min, held 3 min, 100 µL/min; details: column: Zorbax Extend-C18 2.1 x 50 mm; eluents: water / acetonitrile, 0.1% formic acid
ASSAY READOUT: RP-LC retention time (s)

The cases that follow already have their RP-LC retention time on record.
CCOc1ccc(C(=O)Nc2cc(Cl)ccc2C)nn1; 1040
Cc1ccc(N2C(=O)CN(S(C)(=O)=O)CC2(C)C(=O)NC2CCCCCC2)cc1Cl (centres undefined); 946
O=C(C1CC1)N1[C@H]2CC[C@@H]1c1cnc(-c3ccccc3)nc1C2; 817
Cc1cccc(S(=O)(=O)N2CCc3c(C(=O)NCCCN4CCCCC4)cccc32)c1; 680
COc1cccc(-c2noc(C3CCCN3C(=O)Nc3ccc(OC)cc3C)n2)c1 (centres undefined); 900
COc1ccc(C)cc1NC(=O)C1CCN(S(=O)(=O)c2ccc3c(c2)sc(=O)n3C)CC1; 827
CCCn1c(=O)c(-c2ccc(C(=O)NC(C)C)cc2)nc2ccccc21; 915

(P) CCn1ccc(C(=O)NC(C)C)n1
(Q) CC(C)Cc1ccc(S(=O)(=O)N2CCc3c(c(-c4nnc(-c5ccccc5)o4)nn3C)C2)cc1
Req: In terms of reported RP-LC retention time, does P or Q have the smaller number? Returns: label corresponding to the selected item.
Resp: P
(P: 642 s, Q: 1150 s)
